Catalogue of binders with associated OD450 nm
target: T1, cyno PD-1^ECD-hFc protein (cyno monkey, UniProt B0LAJ3 25-167)
T1 construct: Prepared by the method for Immunogen A; also called Cyno Monkey PD-1^ECD-hFc; cyno monkey PD-1-hFc; not shown: human IgG Fc fragment (hFc) and its junction to the ECD
T1 sequence (B0LAJ3 entry or part of it limits assumed): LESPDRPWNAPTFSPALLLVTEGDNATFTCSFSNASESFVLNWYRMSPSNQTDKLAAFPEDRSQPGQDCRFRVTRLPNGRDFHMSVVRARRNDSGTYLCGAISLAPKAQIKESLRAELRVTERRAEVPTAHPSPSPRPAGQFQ
assayNotes: ELISA, coated cyno PD-1ECD-hFc; antibody 0.01 nM
Procedure: 100 uL of the diluted recombinant proteins were added to each well of 96-well plate. The plates were sealed with plastic film and incubated at 4° C. overnight. The plates were washed twice with wash buffer (PBS+0.01% (v/v) Tween20), and incubated with blocking buffer (PBS+0.01% (v/v) Tween20+1% (w/w) BSA) at room temperature for 2 hours. […] The absorbance at 450 nm was measured with an ELISA plate reader (384plus SpectraMax, Molecular Devices).
outcomeMeasure: OD450 nm

1. chimeric anti-PD-1 antibody 32B5C7 (antibody, V domains shown, Purified from hybridoma of Harbour H2L2 mice: human variable regions, rat constant regions) VH: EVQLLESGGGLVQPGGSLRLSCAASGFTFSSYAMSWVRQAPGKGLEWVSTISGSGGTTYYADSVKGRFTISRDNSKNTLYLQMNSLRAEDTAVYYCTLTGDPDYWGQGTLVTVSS VL: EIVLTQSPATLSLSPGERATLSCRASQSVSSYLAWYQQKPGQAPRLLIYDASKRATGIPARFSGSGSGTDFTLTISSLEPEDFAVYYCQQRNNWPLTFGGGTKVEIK : 0.1
2. chimeric anti-PD-1 antibody 21G8F11 (antibody, V domains shown, Purified from hybridoma of Harbour H2L2 mice: human variable regions, rat constant regions) VH: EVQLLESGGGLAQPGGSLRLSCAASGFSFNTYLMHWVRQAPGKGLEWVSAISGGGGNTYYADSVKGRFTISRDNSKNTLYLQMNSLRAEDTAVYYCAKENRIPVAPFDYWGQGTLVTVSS VL: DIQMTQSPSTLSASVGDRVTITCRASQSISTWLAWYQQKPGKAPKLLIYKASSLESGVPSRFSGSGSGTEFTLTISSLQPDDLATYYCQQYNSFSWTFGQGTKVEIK : 0.27
3. chimeric anti-PD-1 antibody 76G5B3 (antibody, V domains shown, Purified from hybridoma of Harbour H2L2 mice: human variable regions, rat constant regions) VH: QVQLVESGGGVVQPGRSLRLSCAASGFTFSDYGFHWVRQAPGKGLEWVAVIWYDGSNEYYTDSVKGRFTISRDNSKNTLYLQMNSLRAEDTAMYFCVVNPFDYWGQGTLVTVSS VL: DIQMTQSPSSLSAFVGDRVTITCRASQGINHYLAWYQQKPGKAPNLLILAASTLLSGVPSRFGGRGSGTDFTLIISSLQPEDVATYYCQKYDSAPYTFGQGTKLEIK : 0.14
4. chimeric anti-PD-1 antibody 223G6B5 (antibody, V domains shown, Purified from hybridoma of Harbour H2L2 mice: human variable regions, rat constant regions) VH: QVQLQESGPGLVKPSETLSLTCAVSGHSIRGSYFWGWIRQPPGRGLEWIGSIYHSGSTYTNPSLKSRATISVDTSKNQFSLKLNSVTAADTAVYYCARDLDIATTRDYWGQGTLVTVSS VL: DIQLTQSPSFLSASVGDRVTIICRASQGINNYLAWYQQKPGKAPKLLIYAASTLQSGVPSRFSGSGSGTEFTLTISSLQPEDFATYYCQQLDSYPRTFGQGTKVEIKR : 0.342
